# targetOrSystem: human chemokine receptor CXCR7 (Homo sapiens (Human))
# Sequence (P25106 whole entry): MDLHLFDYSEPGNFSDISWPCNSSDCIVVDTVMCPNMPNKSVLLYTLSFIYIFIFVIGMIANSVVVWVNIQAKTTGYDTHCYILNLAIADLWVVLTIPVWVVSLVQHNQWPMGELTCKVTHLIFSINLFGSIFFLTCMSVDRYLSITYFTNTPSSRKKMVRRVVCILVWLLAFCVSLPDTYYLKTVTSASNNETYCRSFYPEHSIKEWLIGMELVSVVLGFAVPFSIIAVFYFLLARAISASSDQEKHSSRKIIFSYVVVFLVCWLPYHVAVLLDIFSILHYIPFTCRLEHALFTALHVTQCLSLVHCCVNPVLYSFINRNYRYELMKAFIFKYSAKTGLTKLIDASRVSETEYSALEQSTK
# testName: Tango CXCR7-bla U2OS beta-arrestin recruitment assay (beta-lactamase reporter, FRET), antagonism of CXCL12/SDF1-α;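 note: compounds preincubated 15 min before CXCL12 addition, then 22 h at 37 °C, FRET emission ratio read with CCF4-AM substrate after 2 h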
# Type: cell-based
# conditionInfo: antagonistic effect on CXCR7; Tango CXCR7-bla U2OS cells, CXCL12/SDF1-α at its EC80
Lab note: anything with IC50 below 400 nM is marked condition met; values at 400 nM or higher are marked condition not met.

>>> classassignment("C[C@@H](NC(=O)[C@@H]1CN(CC2CC2)CC[C@H]1NC(=O)c1cn(-c2ccc(F)cc2F)nn1)c1ccccn1 (relative stereo)")
"condition met"
>>> classassignment("CN(C)C(=O)[C@@H]1CN(Cc2ccccc2)CC[C@H]1NC(=O)c1cc(-c2ccc(F)cc2F)on1")
"condition met"
>>> classassignment("O=C(N[C@@H]1CCN(C2CCCCC2)C[C@H]1C(=O)NCC(F)F)c1cc(-c2ccc(F)cc2F)on1 (racemic)")
"condition not met"
>>> classassignment("CN(CC1COC1)C(=O)[C@@H]1CN(C2CCCCC2)CC[C@H]1NC(=O)c1cc(-c2ccc(F)cc2F)on1 (racemic)")
"condition not met"
>>> classassignment("CC(C)CNC(=O)[C@@H]1CN(C2CCCCC2)CC[C@H]1NC(=O)c1cc(-c2ccc(F)cc2F)on1 (racemic)")
"condition not met"

Reference for the values: patent US11306078B2
